Taken from patent EP0035868A1.

# inhibition at 1 µM values compiled below
# target: UniProt:P12822
# Sequence (P12822 34-1310): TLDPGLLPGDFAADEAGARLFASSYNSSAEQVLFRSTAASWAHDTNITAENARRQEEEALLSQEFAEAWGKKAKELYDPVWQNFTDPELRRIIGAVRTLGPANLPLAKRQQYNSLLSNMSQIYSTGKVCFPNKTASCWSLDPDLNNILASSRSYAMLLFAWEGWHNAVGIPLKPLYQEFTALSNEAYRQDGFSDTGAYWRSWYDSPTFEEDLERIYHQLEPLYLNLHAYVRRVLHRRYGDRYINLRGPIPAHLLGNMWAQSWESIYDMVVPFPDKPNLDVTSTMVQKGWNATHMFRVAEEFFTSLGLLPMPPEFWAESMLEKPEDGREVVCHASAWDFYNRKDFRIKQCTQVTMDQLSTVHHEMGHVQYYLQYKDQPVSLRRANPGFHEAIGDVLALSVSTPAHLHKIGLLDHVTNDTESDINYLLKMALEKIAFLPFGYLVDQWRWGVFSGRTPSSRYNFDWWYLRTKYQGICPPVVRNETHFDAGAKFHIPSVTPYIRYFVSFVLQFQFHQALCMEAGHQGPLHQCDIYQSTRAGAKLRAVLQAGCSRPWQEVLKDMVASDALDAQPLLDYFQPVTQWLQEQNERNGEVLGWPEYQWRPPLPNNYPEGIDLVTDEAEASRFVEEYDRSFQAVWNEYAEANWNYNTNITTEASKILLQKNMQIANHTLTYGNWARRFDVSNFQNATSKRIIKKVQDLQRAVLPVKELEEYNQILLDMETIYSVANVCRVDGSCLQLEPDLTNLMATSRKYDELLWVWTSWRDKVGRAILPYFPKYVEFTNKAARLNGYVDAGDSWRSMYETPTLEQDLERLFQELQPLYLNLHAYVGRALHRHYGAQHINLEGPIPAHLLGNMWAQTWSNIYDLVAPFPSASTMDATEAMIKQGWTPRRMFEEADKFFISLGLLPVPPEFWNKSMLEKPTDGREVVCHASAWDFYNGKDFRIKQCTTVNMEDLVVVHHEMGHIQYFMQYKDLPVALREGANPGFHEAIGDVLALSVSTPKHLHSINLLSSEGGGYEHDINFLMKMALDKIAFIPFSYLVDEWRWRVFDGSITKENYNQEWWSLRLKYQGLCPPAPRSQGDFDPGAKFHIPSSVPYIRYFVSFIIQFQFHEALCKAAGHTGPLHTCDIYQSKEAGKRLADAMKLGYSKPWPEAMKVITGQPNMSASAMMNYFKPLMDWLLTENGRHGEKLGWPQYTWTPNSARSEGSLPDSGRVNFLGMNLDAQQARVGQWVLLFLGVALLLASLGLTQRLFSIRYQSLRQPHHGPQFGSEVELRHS
# testName: Inhibition of angiotensin I converting enzyme (HHL substrate, modified Cushman method)
# Format: biochemical
# recordedConditions: Concentration 1 μM, 37°C, one hour, read-out: Inhibitory Activity on ACE (%)
# Method: The experiment was conducted in accordance with a modification of the method described by Cushman et al. [Biochemical Pharmacology, Vol. 20, pl637(1971)]. That is, using hippuryl-L-histidyl-L-leucine(HHL) as the substrate, the ACE (angiotensin I converting enzyme) inhibitory activity was determined in terms of percent inhibition on the amount of hippuric acid produced by ACE when the present compound was added. […]

Examples from the recorded data:
compound: C[C@H](CSC(=O)c1ccccc1)C(=O)N(CC(=O)O)C1Cc2ccccc2C1 [Example 38]
target: UniProt:P12822
quantity: inhibition at 1 µM
assayValue: 86%
//
compound: CC(=O)SCC(C)C(=O)N(CC(=O)O)C1CCOc2ccc(Cl)cc21 (stereo not drawn) [Example 21]
target: UniProt:P12822
quantity: inhibition at 1 µM
assayValue: 19%

Next compound, please.
# input # lookup: inhibition at 1 µM of COc1cc2c(cc1OC)C(N(CC(=O)O)C(=O)C(CSC(C)=O)CSC(C)=O)CC2 (stereo not drawn) [Example 43]
# output 32%
